- experimental system: T1, Human BCMA (human, UniProt Q02223 1-54, limits assumed)
- T1 construct: also called huBCMA; B-cell maturation antigen
- T1 sequence (looked up): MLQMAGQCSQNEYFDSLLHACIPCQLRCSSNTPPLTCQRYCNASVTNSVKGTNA
- assay procedure: SPR, IgG immobilised, human BCMA analyte
readout name: koff

Any idea what koff was measured for A02_Rd4_0.6nM_C06 (antibody, V domains shown, IgG) VH: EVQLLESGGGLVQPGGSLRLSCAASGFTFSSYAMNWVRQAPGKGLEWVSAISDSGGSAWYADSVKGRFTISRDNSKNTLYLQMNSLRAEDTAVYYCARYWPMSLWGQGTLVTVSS VL: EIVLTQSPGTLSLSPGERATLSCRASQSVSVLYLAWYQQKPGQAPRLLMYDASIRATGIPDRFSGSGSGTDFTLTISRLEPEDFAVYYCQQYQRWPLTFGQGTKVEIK ?
7.37e-05 s⁻¹

Any idea what koff was measured for A02_Rd4_6nM_C05 (antibody, V domains shown, IgG) VH: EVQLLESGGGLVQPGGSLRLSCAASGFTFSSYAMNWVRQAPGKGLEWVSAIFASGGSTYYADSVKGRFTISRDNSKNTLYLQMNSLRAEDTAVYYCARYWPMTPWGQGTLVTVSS VL: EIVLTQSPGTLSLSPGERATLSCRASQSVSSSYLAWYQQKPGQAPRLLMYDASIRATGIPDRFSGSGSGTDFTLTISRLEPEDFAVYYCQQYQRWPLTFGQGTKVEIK ?
0.000308 s⁻¹

Any idea what koff was measured for COMBO_Rd4_6nM_C22 (antibody, V domains shown, IgG) VH: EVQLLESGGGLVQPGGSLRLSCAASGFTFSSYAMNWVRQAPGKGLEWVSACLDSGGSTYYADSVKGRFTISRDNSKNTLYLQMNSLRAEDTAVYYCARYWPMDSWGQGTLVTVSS VL: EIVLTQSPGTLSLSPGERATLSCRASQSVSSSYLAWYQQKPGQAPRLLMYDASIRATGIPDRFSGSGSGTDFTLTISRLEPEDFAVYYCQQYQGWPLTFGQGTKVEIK ?
0.000775 s⁻¹

Any idea what koff was measured for A02_Rd4_0.6nM_C03 (antibody, V domains shown, IgG) VH: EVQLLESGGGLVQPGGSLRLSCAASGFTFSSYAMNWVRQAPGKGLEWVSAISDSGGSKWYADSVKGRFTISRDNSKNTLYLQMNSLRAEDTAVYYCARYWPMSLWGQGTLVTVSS VL: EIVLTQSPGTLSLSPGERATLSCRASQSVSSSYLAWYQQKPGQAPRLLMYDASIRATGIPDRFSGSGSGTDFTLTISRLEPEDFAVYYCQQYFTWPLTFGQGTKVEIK ?
0.000182 s⁻¹

Any idea what koff was measured for A02_Rd4_6nM_C08 (antibody, V domains shown, IgG) VH: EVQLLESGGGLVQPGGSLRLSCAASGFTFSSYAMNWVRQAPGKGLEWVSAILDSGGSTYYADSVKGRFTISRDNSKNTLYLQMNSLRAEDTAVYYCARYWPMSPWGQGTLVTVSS VL: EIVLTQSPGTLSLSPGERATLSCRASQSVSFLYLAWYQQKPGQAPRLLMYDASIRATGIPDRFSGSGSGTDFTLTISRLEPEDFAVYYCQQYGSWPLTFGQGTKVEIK ?
0.000738 s⁻¹
